System: P388
Assay: Cytotoxicity against murine P388 cells.
Format: functional, cell-based
Details: Mus musculus
Here the recorded IC50 is given for each entry.
measurement.name: IC50

>>> obs_value("C=CC(=O)N1C/C(=C\\c2ccc(N3CC3)cc2)C(=O)/C(=C/c2ccc(N3CC3)cc2)C1")
"43300 nM"
>>> obs_value("C=CC(=O)N1C/C(=C\\c2ccc([N+](=O)[O-])cc2)C(=O)/C(=C/c2ccc([N+](=O)[O-])cc2)C1")
"50 nM"
>>> obs_value("C=CC(=O)N1C/C(=C\\c2ccc(Cl)c(Cl)c2)C(=O)/C(=C/c2ccc(Cl)c(Cl)c2)C1")
"50 nM"
>>> obs_value("O=C1/C(=C/c2ccc([N+](=O)[O-])cc2)CNC/C1=C\\c1ccc([N+](=O)[O-])cc1")
"200 nM"
>>> obs_value("O=C1/C(=C/c2ccc(F)cc2)CNC/C1=C\\c1ccc(F)cc1")
"600 nM"
>>> obs_value("C=CC(=O)N1C/C(=C\\c2ccc(Cl)cc2)C(=O)/C(=C/c2ccc(Cl)cc2)C1")
"150 nM"
>>> obs_value("O=C1/C(=C/c2ccccc2)CNC/C1=C\\c1ccccc1")
"770 nM"
>>> obs_value("O=C1/C(=C/c2ccc(N3CC3)cc2)CNC/C1=C\\c1ccc(N2CC2)cc1")
"640 nM"
>>> obs_value("C=CC(=O)N1C/C(=C\\c2ccc(F)cc2)C(=O)/C(=C/c2ccc(F)cc2)C1")
"270 nM"
>>> obs_value("O=C1/C(=C/c2ccc(Cl)cc2)CNC/C1=C\\c1ccc(Cl)cc1")
"740 nM"
>>> obs_value("O=C1/C(=C/c2ccc(Cl)c(Cl)c2)CNC/C1=C\\c1ccc(Cl)c(Cl)c1")
"1010 nM"
>>> obs_value("C=CC(=O)N1C/C(=C\\c2ccc(OC)cc2)C(=O)/C(=C/c2ccc(OC)cc2)C1")
"680 nM"
>>> obs_value("COc1ccc(/C=C2\\CNC/C(=C\\c3ccc(OC)cc3)C2=O)cc1")
"1540 nM"
>>> obs_value("C=CC(=O)N1C/C(=C\\c2ccccc2)C(=O)/C(=C/c2ccccc2)C1")
"500 nM"
